# experimentalSystem: human 17β-hydroxy steroid dehydrogenase type 1 (Homo sapiens)
# Construct: made in house; host or cells: E. coli (suspension of bacterial pellets, enzyme not purified)
# Sequence (P14061 1-328): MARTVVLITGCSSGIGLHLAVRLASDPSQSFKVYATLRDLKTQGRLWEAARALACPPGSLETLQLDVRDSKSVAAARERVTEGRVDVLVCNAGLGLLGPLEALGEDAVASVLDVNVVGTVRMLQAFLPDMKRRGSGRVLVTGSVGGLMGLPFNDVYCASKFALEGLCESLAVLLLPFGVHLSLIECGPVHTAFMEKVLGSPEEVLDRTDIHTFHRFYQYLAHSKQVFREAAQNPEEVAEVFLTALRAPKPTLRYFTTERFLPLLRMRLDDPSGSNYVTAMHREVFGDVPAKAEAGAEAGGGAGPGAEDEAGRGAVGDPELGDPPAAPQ
# assayOverview: Inhibition of the activity of human 17β-hydroxy steroid dehydrogenase type 1 (3H-labeled substrate conversion, HPLC)
# Assay type: biochemical
readoutLabel: pIC50
Give bare numbers, as −log10 of the molar value.

Solved entries (count: 2):
C[C@]12CC[C@@H]3c4cc(Cl)c(O)cc4CC[C@H]3[C@@H]1C[C@H](F)C2=O :: 7.46
C[C@]12CC[C@@H]3c4cc(Cl)c(O)cc4CC[C@H]3[C@@H]1C[C@@H](F)C2=O :: 7.00

Now let's try a different one.
State the recorded pIC50 for this entry: C[C@]12CC[C@@H]3c4cc(CCc5ccccc5)c(O)cc4CC[C@H]3[C@@H]1CCC2=O
7.33

* * *

# experimentalSystem: human 17β-hydroxy steroid dehydrogenase type 1 (Homo sapiens)
# Construct: made in house; host or cells: E. coli (suspension of bacterial pellets, enzyme not purified)
# Sequence (P14061 1-328): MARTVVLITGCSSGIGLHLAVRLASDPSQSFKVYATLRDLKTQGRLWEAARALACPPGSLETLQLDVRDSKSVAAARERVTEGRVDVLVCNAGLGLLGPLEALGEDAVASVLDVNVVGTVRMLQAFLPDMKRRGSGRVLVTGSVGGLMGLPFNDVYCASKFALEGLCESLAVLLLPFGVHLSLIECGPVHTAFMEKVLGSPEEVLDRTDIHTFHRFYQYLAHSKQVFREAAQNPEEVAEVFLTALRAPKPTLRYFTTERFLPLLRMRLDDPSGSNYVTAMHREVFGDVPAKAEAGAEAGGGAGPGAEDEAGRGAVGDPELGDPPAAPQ
# assayOverview: Inhibition of the activity of human 17β-hydroxy steroid dehydrogenase type 1 (3H-labeled substrate conversion, HPLC)
# Format: biochemical
# setupConditions: enzyme over-expressed in E. coli, bacterial suspension, 37° C.; read-out: 17βHSD1 IC50
readoutLabel: IC50 (nM)
One number for each entry, in nM.

C[C@]12CC[C@@H]3c4cc(C#N)c(O)cc4CC[C@H]3[C@@H]1CCC2=O :: 148

Please supply IC50 for each of the following items, keeping them in order.
1. CC[C@]12CC[C@@H]3c4cc(Cl)c(O)cc4CC[C@H]3[C@@H]1CCC2=O
2. C[C@]12CC[C@@H]3c4cc(Cl)c(O)cc4CC[C@H]3[C@@H]1CCC2=O
3. CCc1cc2c(cc1O)CC[C@@H]1[C@@H]2CC[C@]2(C)C(=O)CC[C@@H]12
4. C[C@]12CC[C@@H]3c4cc(C#Cc5ccccc5)c(O)cc4CC[C@H]3[C@@H]1CCC2=O

1: 121; 2: 140; 3: 89; 4: 56
